TESTED SYSTEM: T1, Human GHR-Fc-10x His (extracellular region of human growth hormone receptor fused to human Fc) (human, UniProt P10912 50-256)
T1 construct: Captured by its 10x His-tag on a Ni-NTA sensor chip for SPR; not shown: human Fc domain of vector pAB1200 with its linker; 10x His-tag replacing the AviTag
T1 sequence (looked up): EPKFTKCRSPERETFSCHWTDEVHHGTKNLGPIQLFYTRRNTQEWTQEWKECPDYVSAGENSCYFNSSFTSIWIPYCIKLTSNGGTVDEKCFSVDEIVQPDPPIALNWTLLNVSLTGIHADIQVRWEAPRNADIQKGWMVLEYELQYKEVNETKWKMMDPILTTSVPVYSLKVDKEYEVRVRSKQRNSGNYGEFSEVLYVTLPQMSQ
ASSAY PROCEDURE: SPR, GHR-Fc-10xHis captured on Ni-NTA chip, Fab as analyte, 1:1 fit
Item-by-item account of koff
READOUT: koff

GHR14 Fab (Fab, V domains shown, Fab) VH: EVQLVESGGGLVQPGGSLRLSCAASGFNISSSYIHWVRQAPGKGLEWVASISSYYGYTSYADSVKGRFTISADTSKNTAYLQMNSLRAEDTAVYYCARSYGSYYGYYHYWEWYGLDYWGQGTLVTVSS VL: DIQMTQSPSSLSASVGDRVTITCRASQSVSSAVAWYQQKPGKAPKLLIYSASSLYSGVPSRFSGSRSGTDFTLTISSLQPEDFATYYCQQWQYWSPVTFGQGTKVEIKR = 0.00127 s⁻¹
GHR10 Fab (Fab, V domains shown, Fab) VH: EVQLVESGGGLVQPGGSLRLSCAASGFNFSYYSIHWVRQAPGKGLEWVASISSYYGSTSYADSVKGRFTISADTSKNTAYLQMNSLRAEDTAVYYCARTEYSFGMYWAHTGMDYWGQGTLVTVSS VL: DIQMTQSPSSLSASVGDRVTITCRASQSVSSAVAWYQQKPGKAPKLLIYSASSLYSGVPSRFSGSRSGTDFTLTISSLQPEDFATYYCQQFWSSEPITFGQGTKVEIKR = 0.000642 s⁻¹
GHR1 Fab (Fab, V domains shown, Synthetic human Fab from phage display, expressed in E. coli) VH: EVQLVESGGGLVQPGGSLRLSCAASGFNVSYSSIHWVRQAPGKGLEWVAYIYSSYGSTYYADSVKGRFTISADTSKNTAYLQMNSLRAEDTAVYYCAREYWPYYSQTGGSAMDYWGQGTLVTVSS VL: DIQMTQSPSSLSASVGDRVTITCRASQSVSSAVAWYQQKPGKAPKLLIYSASSLYSGVPSRFSGSRSGTDFTLTISSLQPEDFATYYCQQSMHPLITFGQGTKVEIKR = 0.000336 s⁻¹
